Biological target: human recombinant serotonin (5-Hydroxytryptamine) 5-HT2A receptor (Homo sapiens)
Construct: expressed in transfected cells; host or cells: Chinese hamster ovary (CHO-K1) cells
Test: Serotonin 5-HT2A radioligand binding ([3H]Ketanserin)
Settings: read-out: Inhibition of ligand binding, Serotonin 5-HT2A (percent inhibition of specific binding), compound at 1 μM
reported-property: inhibition at 1 µM (%)

INSERT INTO measurements (compound, observed_result) VALUES
  ('Cc1ccc2c(c1)c1c(n2CC(O)(c2ccc(F)cc2)C2CCCCC2)CCN(C)C1 (centres unmarked) [Compound 171]', 97),
  ('CCOC(=O)/C=C(/Cn1c2c(c3cc(C)ccc31)CN(C)CC2)c1ccccc1 [Compound No. 347]', 100),
  ('C=C(Cn1c2c(c3cc(OC)ccc31)CN(C)CC2)c1ccncc1 [Compound No. 356]', 81),
  ('C/C(=C\n1c2c(c3cc(C)ccc31)CN(C)CC2)c1cc(Cl)cc(Cl)c1 [Compound 218]', 99),
  ('COc1ccc(C#Cn2c3c(c4cc(Cl)ccc42)CN(C)CC3)cc1F [Compound No. 477]', 95),
  ('CN1CCc2c(c3cc(Cl)ccc3n2CC(C)(O)c2cccnc2)C1 (centres unmarked) [Compound 61]', 77),
  ('CN1CCc2c(c3cccc(F)c3n2CC(C)(O)c2ccncc2)C1 (centres unmarked) [Compound 185]', 82),
  ('CN1CCc2c(c3cc(Cl)ccc3n2C/C=C/c2ccc(F)cc2)C1 [Compound 126]', 102),
  ('C/C(=C\n1c2c(c3cc(F)ccc31)CN(C)CC2)c1ccncc1 [Compound 216]', 99),
  ('CN1CCc2c(c3cc(Cl)c(Cl)cc3n2CC(C)(O)c2ccncc2)C1 (centres unmarked) [Compound 189]', 96),
  ('CN1CCc2c(c3cc(Cl)ccc3n2C/C=C/c2ccncc2)C1 [Compound 127]', 84),
  ('Cc1ccc2c(c1)c1c(n2/C=C/c2ccc(C)nc2)CCN(C)C1 [compound 95]', 91),
  ('C/C(=C\n1c2c(c3cc(C)ccc31)CN(C)CC2)c1ccc(F)cc1 [Compound 87]', 99),
  ('CN1CCc2c(c3cc(Cl)ccc3n2CC(O)(c2ccc(F)cc2)C2CC2)C1 (centres unmarked) [Compound 82]', 100),
  ('C/C(=C\n1c2c(c3ccc(F)cc31)CN(C)CC2)c1ccc(F)cc1 [Compound 227]', 103),
  ('C/C(=C\n1c2c(c3ccc(Cl)cc31)CN(C)CC2)c1ccc(F)cc1 [Compound 228]', 101),
  ('CN1CCc2c(c3cc(Cl)ccc3n2CC(O)(c2ccc(F)cc2)C2CCC2)C1 (centres unmarked) [Compound 177]', 97),
  ('C/C(=C\n1c2c(c3cc(C)ccc31)CN(C)CC2)c1cccc(F)c1 [Compound 226]', 98),
  ('COc1ccc(C#Cn2c3c(c4cc(C)ccc42)CN(C)CC3)cc1F [Compound No. 485]', 96),
  ('C/C(=C\n1c2c(c3cc(Cl)ccc31)CN(C)CC2)c1cc(Cl)cc(Cl)c1 [Compound 215]', 97),
  ('Cc1ccc2c(c1)c1c(n2C#Cc2ccc(C)nc2)CCN(C)C1 [Compound No. 476]', 100),
  ('C/C(=C\n1c2c(c3cc(Cl)ccc31)CN(C)CC2)c1ccc(F)c(F)c1 [Compound 98]', 95),
  ('Cc1ccc(C(C)(O)Cn2c3c(c4cc(Cl)ccc42)CN(C)CC3)cn1 (centres unmarked) [Compound 47]', 84),
  ('CN1CCc2c(c3cc(Cl)ccc3n2CC(O)c2ccncc2)C1 (centres unmarked) [Compound 183]', 82),
  ('C/C(=C/n1c2c(c3cc(C)ccc31)CN(C)CC2)c1cc(F)c(F)cc1Cl [Compound 220]', 99),
  ('C=C(Cn1c2c(c3cc(Cl)ccc31)CN(C)CC2)c1ccc(C)nc1 [Compound 136]', 100),
  ('C=C(Cn1c2c(c3cc(Cl)ccc31)CN(C)CC2)c1ccc(OC)c(F)c1 [Compound 140]', 98),
  ('C=C(Cn1c2c(c3cccc(F)c31)CN(C)CC2)c1ccc(F)cc1 [Compound No. 353]', 98),
  ('CC(=Cn1c2c(c3cc(Cl)ccc31)CN(C)CC2)c1ccc(Cl)cc1Cl (stereo in doubt) [Compound 111]', 99);

###

Target: histamine receptor H1 (Homo sapiens)
Sequence (P35367 whole entry): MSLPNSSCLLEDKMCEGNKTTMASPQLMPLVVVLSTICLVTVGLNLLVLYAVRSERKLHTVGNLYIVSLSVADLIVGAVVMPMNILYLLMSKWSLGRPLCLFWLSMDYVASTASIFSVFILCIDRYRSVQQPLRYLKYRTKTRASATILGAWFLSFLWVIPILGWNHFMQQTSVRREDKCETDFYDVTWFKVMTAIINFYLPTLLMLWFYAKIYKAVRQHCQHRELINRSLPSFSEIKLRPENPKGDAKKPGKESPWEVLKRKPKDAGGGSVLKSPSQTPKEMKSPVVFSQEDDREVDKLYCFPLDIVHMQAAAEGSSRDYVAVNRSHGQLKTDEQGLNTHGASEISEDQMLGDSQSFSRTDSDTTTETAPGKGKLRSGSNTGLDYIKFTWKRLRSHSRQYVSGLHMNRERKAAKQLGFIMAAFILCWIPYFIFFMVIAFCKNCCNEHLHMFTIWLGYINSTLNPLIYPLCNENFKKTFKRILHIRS
Assay: Histamine H1 radioligand binding ([3H]Pyrilamine)
Conditions: read-out: Histamine Binding (1 μM) H1, percent inhibition of specific binding, 1 μM
Returns the class for an entry based on its inhibition at 1 µM. Class ranges: low band: < 20%; middle band: ≥ 20% and < 60%; high band: ≥ 60%

INSERT INTO measurements (compound, measurement_target, cat) VALUES
  ('C/C(=C/n1c2c(c3cc(C)ccc31)CN(C)CC2)c1cc(F)c(F)cc1Cl', 'histamine receptor H1 (Homo sapiens)', 'high band'),
  ('C/C(=C\n1c2c(c3cc(Cl)ccc31)CN(C)CC2)c1cccs1', 'histamine receptor H1 (Homo sapiens)', 'high band'),
  ('CCC(O)(Cn1c2c(c3cc(C)ccc31)CN(C)CC2)c1ccc(F)cc1 (centres unmarked)', 'histamine receptor H1 (Homo sapiens)', 'high band'),
  ('CN1CCc2c(c3cc(Cl)ccc3n2C/C(=C/CCO)c2ccc(F)cc2)C1', 'histamine receptor H1 (Homo sapiens)', 'middle band'),
  ('CN1CCc2c(c3ccc(Cl)cc3n2CC(C)(O)c2ccncc2)C1 (centres unmarked)', 'histamine receptor H1 (Homo sapiens)', 'middle band'),
  ('C/C(=C\n1c2c(c3cc(C)ccc31)CN(C)CC2)c1cc(C)nc(C)c1', 'histamine receptor H1 (Homo sapiens)', 'low band'),
  ('C/C(=C\c1ccccc1)n1c2c(c3cc(C)ccc31)CN(C)CC2', 'histamine receptor H1 (Homo sapiens)', 'high band'),
  ('CC(=O)N(C)c1ccc2c(c1)c1c(n2/C=C(\C)c2ccncc2)CCN(C)C1', 'histamine receptor H1 (Homo sapiens)', 'low band'),
  ('C/C(=C\n1c2c(c3cc(Cl)ccc31)CN(C)CC2)c1ccc(C)nc1', 'histamine receptor H1 (Homo sapiens)', 'middle band'),
  ('C/C(=C\n1c2c(c3cc(C)ccc31)CNCC2)c1cc[n+](C)cc1', 'histamine receptor H1 (Homo sapiens)', 'low band'),
  ('Cc1ccc2c(c1)c1c(n2CC(C)(O)c2ccncc2)CCN(C)C1 (centres unmarked)', 'histamine receptor H1 (Homo sapiens)', 'middle band'),
  ('C/C(=C\n1c2c(c3cc(C)ccc31)CN(C)CC2)c1cnc(C)cn1', 'histamine receptor H1 (Homo sapiens)', 'low band'),
  ('CN1CCc2c(c3cc(Cl)ccc3n2CC(C)(O)c2cccnc2)C1 (centres unmarked)', 'histamine receptor H1 (Homo sapiens)', 'middle band'),
  ('C/C(=C\n1c2c(c3cc(Cl)ccc31)CN(C)C(C)C2)c1ccc(C)nc1 (centres unmarked)', 'histamine receptor H1 (Homo sapiens)', 'middle band'),
  ('Cc1ccc2c(c1)c1c(n2CC(O)c2ccncc2)CCN(C)C1 (centres unmarked)', 'histamine receptor H1 (Homo sapiens)', 'high band'),
  ('C/C(=C\n1c2c(c3cc(C)ccc31)CN(CC(F)(F)F)CC2)c1ccncc1', 'histamine receptor H1 (Homo sapiens)', 'low band');

###

Target: human dopamine D2L receptor (Homo sapiens, UniProt P14416)
Sequence (P14416 whole entry): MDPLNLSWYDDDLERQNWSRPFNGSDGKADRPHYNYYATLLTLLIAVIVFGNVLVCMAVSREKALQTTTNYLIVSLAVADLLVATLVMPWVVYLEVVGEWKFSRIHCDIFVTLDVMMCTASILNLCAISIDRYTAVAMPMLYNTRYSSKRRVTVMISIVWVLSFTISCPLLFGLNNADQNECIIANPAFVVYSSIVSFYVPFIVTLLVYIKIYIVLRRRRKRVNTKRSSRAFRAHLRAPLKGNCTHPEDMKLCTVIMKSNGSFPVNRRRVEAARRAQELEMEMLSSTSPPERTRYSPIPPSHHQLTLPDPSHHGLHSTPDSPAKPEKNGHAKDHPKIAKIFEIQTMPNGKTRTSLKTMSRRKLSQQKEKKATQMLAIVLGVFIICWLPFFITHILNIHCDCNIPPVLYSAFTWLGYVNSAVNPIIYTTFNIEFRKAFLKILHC
Assay: Dopamine D2L radioligand binding ([3H]Spiperone)
Conditions: percent inhibition of specific binding; compound at 1 μM; 1 µM
reported-property: Inhibition of ligand binding, Dopamine D2L (%)

INSERT INTO results (chemical_string, observed_result) VALUES
  ('C/C(=C\n1c2c(c3ccccc31)CN(C)CC2)c1ccncc1', 88),
  ('C/C(=C\n1c2c(c3cc(C)ccc31)CN(C)CC2)c1ccc(Cl)cc1', 49),
  ('C/C(=C\n1c2c(c3cc(C)ccc31)CN(C)CC2)c1cc(Cl)cc(Cl)c1', 43),
  ('C/C(=C\n1c2c(c3cc(Cl)ccc31)CN(C)CC2)c1ccc(Cl)cc1', 68),
  ('C/C(=C\n1c2c(c3ccc(Cl)cc31)CN(C)CC2)c1ccncc1', 97),
  ('COc1ccc(/C(C)=C/n2c3c(c4cc(Cl)ccc42)CN(C)CC3)cc1F', 97),
  ('C/C(=C\n1c2c(c3cc(C)ccc31)CN(C)CC2)c1ccc(C)nc1', 57),
  ('C/C(=C/n1c2c(c3cc(C)ccc31)CN(C)CC2)c1ccncc1', 80);

###

Biological target: human recombinant histamine H2 receptor (Homo sapiens, UniProt P25021)
Construct: expressed in transfected cells; host or cells: Chinese hamster ovary (CHO) K1 cells
Sequence (P25021 whole entry): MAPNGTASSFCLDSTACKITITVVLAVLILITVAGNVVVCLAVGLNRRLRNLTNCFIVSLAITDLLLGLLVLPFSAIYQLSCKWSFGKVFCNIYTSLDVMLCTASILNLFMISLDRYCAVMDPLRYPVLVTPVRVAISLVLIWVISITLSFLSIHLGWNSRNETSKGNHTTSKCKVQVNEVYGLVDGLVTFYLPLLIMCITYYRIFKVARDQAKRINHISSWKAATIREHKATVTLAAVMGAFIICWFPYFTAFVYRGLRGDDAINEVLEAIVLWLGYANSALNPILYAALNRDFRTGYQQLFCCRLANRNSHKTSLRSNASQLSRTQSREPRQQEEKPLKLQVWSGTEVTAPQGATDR
Experiment: Histamine H2 radioligand binding ([125I]Aminopotentidine)
Settings: read-out: Histamine Binding (1 μM) H2, percent inhibition of specific binding, 1 μM
Protocol: To evaluate in radioligand binding assays the activity of compounds of the invention, human recombinant histamine H2 receptor expressed in Chinese hamster ovary (CHO) K1 cells (Ruat, M., Proc. Natl. Acad. Sci. USA. 87(5):1658, 1990) in a 50 mM Phosphate buffer, pH 7.4 was used. […] Receptor proteins were filtered and washed, the filters were then counted to determine [^125I]Aminopotentidine specifically bound.
reported-property: inhibition at 1 µM (%)

INSERT INTO measurements (compound, unit_spec, observed_result) VALUES
  ('C/C(=C\n1c2c(c3cc(Cl)ccc31)CN(C)CC2)c1cccc(F)c1', '%', 94),
  ('C/C(=C\n1c2c(c3c(Cl)c(Cl)ccc31)CN(C)CC2)c1ccc(F)cc1', '%', 95),
  ('C/C(=C/n1c2c(c3cc(C)ccc31)CN(C)CC2)c1ccccc1Cl', '%', 97),
  ('CN1CCc2c(c3ccccc3n2CC(C)(O)c2ccncc2)C1 (stereo not drawn)', '%', 22),
  ('C=C(Cn1c2c(c3cc(C)ccc31)CN(C)CC2)c1ccc(F)cc1', '%', 96),
  ('C=C(Cn1c2c(c3cc(Cl)ccc31)CN(C)CC2)c1cccnc1', '%', 60);
